# SYSTEM_NAME: Transient receptor potential cation channel subfamily V member 1 (Rattus norvegicus) (UniProt O35433)
# EXPERIMENT_DESCRIPTION: Antagonist activity at rat TRPV1 expressed in Xenopus laevis oocytes assessed as blockage of capsaicin-induced current at holding potential -60 mV at 10 uM by two-microelectrode voltage -clamp amplifier
# Type: functional, cell-based
# Design: scale not given: the % may be the effect or the level left
# ASSAY_CONTEXT: Oocyte
MEASURE_NAME: Activity (%)
One number for each entry, in %.

// worked examples, Activity included
MOLECULE | Activity (%)
CN1CCCC1CCNCC(=O)N(CCc1ccc(Cl)cc1Cl)CC(=O)N(CCc1ccc(Cl)cc1Cl)CC(N)=O (centres undefined) | 99
NC(=O)CN(CCc1ccc(Cl)cc1Cl)C(=O)CN(CCc1ccc(Cl)cc1Cl)C(=O)CNCCCO | 32
CCN(CC)CCCNCC(=O)N(CCc1ccc(Cl)cc1Cl)CC(=O)N(CCc1ccc(Cl)cc1Cl)CC(N)=O | 99

Below: the item to evaluate.
Prompt: Tell me the measured Activity of CN1CCCC1CCN1CC(=O)N(CCc2ccccc2)C(CC(=O)N(CCc2ccc(Cl)cc2Cl)CC(N)=O)C1=O (centres undefined) , please.
Completion: 28

###

# SYSTEM_NAME: Transient receptor potential cation channel subfamily V member 1 (Rattus norvegicus)
# EXPERIMENT_DESCRIPTION: Antagonist activity at rat TRPV1 expressed in Xenopus laevis oocytes assessed as blockage of capsaicin-induced current at holding potential -60 mV by two-microelectrode voltage -clamp amplifier
Provide the recorded IC50 for the entries that follow.
A bare number is not enough; add the unit after it.

COMPOUND | SYSTEM_NAME | IC50
CN(C)CCCNc1nc(NCCc2ccccc2)nc(NCCc2ccccc2)n1 | Transient receptor potential cation channel subfamily V member 1 (Rattus norvegicus) | 670 nM

# per-item lookup of IC50; items listed below
1. CN(C)CCCNc1nc(NCCc2ccc(Cl)cc2)nc(NCCc2ccc(Cl)cc2)n1
2. CN(C)CCCNc1nc(NCc2ccc3c(c2)OCO3)nc(NCc2ccc3c(c2)OCO3)n1
3. COc1ccc(CCNc2nc(NCCCN(C)C)nc(NCCc3ccc(OC)cc3)n2)cc1

Completion:
500 nM
4980 nM
970 nM

###

# SYSTEM_NAME: Transient receptor potential cation channel subfamily V member 1 (Rattus norvegicus, UniProt O35433)
# Sequence (O35433 whole entry): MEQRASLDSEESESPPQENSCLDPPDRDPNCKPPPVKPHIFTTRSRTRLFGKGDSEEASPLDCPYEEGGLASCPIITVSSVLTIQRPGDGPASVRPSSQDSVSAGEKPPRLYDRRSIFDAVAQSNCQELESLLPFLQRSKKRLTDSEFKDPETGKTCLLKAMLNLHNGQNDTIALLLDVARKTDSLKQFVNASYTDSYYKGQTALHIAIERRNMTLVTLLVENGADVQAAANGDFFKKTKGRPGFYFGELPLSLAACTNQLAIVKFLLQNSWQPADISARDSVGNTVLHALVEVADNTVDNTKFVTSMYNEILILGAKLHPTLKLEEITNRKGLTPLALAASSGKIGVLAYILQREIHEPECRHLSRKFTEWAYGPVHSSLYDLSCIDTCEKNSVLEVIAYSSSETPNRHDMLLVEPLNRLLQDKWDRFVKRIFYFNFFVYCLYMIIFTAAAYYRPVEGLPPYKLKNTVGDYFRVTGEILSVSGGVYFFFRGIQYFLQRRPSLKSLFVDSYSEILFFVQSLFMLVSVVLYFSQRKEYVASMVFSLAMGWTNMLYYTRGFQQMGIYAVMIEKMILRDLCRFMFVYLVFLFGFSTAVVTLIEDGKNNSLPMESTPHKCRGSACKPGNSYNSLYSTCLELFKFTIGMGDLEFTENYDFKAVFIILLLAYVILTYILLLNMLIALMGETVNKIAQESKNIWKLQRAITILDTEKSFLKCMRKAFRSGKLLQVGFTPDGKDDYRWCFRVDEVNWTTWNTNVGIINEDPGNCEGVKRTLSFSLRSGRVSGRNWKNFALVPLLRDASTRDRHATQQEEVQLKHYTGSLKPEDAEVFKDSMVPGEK
# EXPERIMENT_DESCRIPTION: Antagonist activity at rat TRPV1 expressed in Xenopus laevis oocytes assessed as blockage of capsaicin-induced current at holding potential -60 mV by two-microelectrode voltage -clamp amplifier
MEASURE_NAME: IC50
A bare number is not enough; add the unit after it.

// worked examples, IC50 included
SMILES_REPR | MEASURE_NAME | VALUE
CN(C)CCCNc1nc(NCCc2ccc(Cl)cc2Cl)nc(NCCc2ccc(Cl)cc2Cl)n1 | IC50 | 1.21 µM
CN(C)CCCNc1nc(NCCc2ccc(F)cc2)nc(NCCc2ccc(F)cc2)n1 | IC50 | 0.05 µM
CN(C)CCCNc1nc(NCCc2ccccc2F)nc(NCCc2ccccc2F)n1 | IC50 | 0.45 µM

# per-item lookup of IC50; items listed below
1. CN(C)CCCNc1nc(NCc2ccc(C(=O)O)cc2)nc(NCc2ccc(C(=O)O)cc2)n1
2. COC(=O)c1ccc(CNc2nc(NCCCN(C)C)nc(NCc3ccc(C(=O)OC)cc3)n2)cc1

Completion:
1. 178 µM
2. 69.1 µM

###

# SYSTEM_NAME: Transient receptor potential cation channel subfamily V member 1 (Rattus norvegicus, UniProt O35433)
# EXPERIMENT_DESCRIPTION: Antagonist activity at rat TRPV1 expressed in Xenopus laevis oocytes assessed as blockage of capsaicin-induced current at holding potential -60 mV by two-microelectrode voltage -clamp amplifier
MEASURE_NAME: IC50 (nM)
Numbers only, in nM.

COMPOUND | VALUE
CN(C)CCCNc1nc(NCc2ccc(Cl)cc2)nc(NCc2ccc(Cl)cc2)n1 | 2620
CN(C)CCNc1nc(NCCc2ccc(Cl)cc2)nc(NCCc2ccc(Cl)cc2)n1 | 6700
CN(C)CCCNc1nc(NCCc2c[nH]c3ccccc23)nc(NCCc2c[nH]c3ccccc23)n1 | 2330

# per-item lookup of IC50; items listed below
1. CN1CCCC1CCNc1nc(NCCc2ccc(Cl)cc2)nc(NCCc2ccc(Cl)cc2)n1 (stereo unspecified)
2. CN(C)CCCNc1nc(NCCc2ccc([N+](=O)[O-])cc2)nc(NCCc2ccc([N+](=O)[O-])cc2)n1
3. CN1CCN(Nc2nc(NCCc3ccc(Cl)cc3)nc(NCCc3ccc(Cl)cc3)n2)CC1

Completion:
1: 1200; 2: 1630; 3: 6400
